- Tested on: 966289-007-R4-J1-PDC complex spheroid viability
- ASSAY: Anticancer human tumor 966289-007-R4-J1-PDC patient-derived pancreatic adenocarcinoma cell line growth inhibition [GQUAD]; active = viability on the fitted dose curve at most 10% of control; inactive = the rest
- CONDITION INFO: second compound 1 µM; first compound 0.0999 µM
Labels: active, inactive

| COMPOUND | CLASS NAME |
| --- | --- |
| Cn1ncnc1[C@H]1c2n[nH]c(=O)c3cc(F)cc(c23)N[C@@H]1c1ccc(F)cc1 + CN(C)c1ccc(Nc2c3ccc(NC(=O)CCN4CCCC4)cc3nc3cc(NC(=O)CCN4CCCC4)ccc23)cc1 | inactive |
| CC[C@@]1(O)C(=O)OCc2c1cc1n(c2=O)Cc2cc3c(CN(C)C)c(O)ccc3nc2-1 + Cc1cnc(CNC(=O)c2c(=O)c3ccc(N4CCCN(C)CC4)nc3n3c2sc2ccccc23)cn1 | active |
| Cc1[nH]c2ccccc2c1CCNCc1ccc(/C=C/C(=O)NO)cc1 + Cc1[nH]c2ccc(F)cc2c1-c1nc2c3cccnc3c3ncccc3c2[nH]1 | inactive |
| Cc1[nH]c2ccccc2c1CCNCc1ccc(/C=C/C(=O)NO)cc1 + CN(C)c1ccc(Nc2c3ccc(NC(=O)CCN4CCCC4)cc3nc3cc(NC(=O)CCN4CCCC4)ccc23)cc1 | inactive |
| Cc1[nH]c2ccccc2c1CCNCc1ccc(/C=C/C(=O)NO)cc1 + Cc1cnc(CNC(=O)c2c(=O)c3ccc(N4CCCN(C)CC4)nc3n3c2sc2ccccc23)cn1 | active |
| CC[C@@]1(O)C(=O)OCc2c1cc1n(c2=O)Cc2cc3c(CN(C)C)c(O)ccc3nc2-1 + Cc1[nH]c2ccc(F)cc2c1-c1nc2c3cccnc3c3ncccc3c2[nH]1 | active |

* * *

- System: 966289-007-R4-J1-PDC complex spheroid viability
- ASSAY: Anticancer human tumor 966289-007-R4-J1-PDC cell line growth inhibition [GQUAD]; active = viability on the fitted dose curve at most 10% of control; inactive = the rest;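 note: spheroids exposed to the agents for seven days before readout; percent viability relative to DMSO vehicle control wells taken as 100%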
- CONDITION INFO: second compound 10 µM; first compound 3.16 µM
Labels: yes (1) (active), no (0) (inactive)

| COMPOUND | CLASS NAME |
| --- | --- |
| O=C(c1cc(Cc2n[nH]c(=O)c3ccccc23)ccc1F)N1CCN(C(=O)C2CC2)CC1 + Cc1cnc(CNC(=O)c2c(=O)c3ccc(N4CCCN(C)CC4)nc3n3c2sc2ccccc23)cn1 | yes (1) |
| O=C(NO)c1cnc(N2CCN(S(=O)(=O)c3ccc4ccccc4c3)CC2)nc1 + CN(C)c1ccc(Nc2c3ccc(NC(=O)CCN4CCCC4)cc3nc3cc(NC(=O)CCN4CCCC4)ccc23)cc1 | yes (1) |
| O=c1[nH]cc(F)c(=O)[nH]1 + Cc1[nH]c2ccc(F)cc2c1-c1nc2c3cccnc3c3ncccc3c2[nH]1 | yes (1) |
| COc1cccc2c1C(=O)c1c(O)c3c(c(O)c1C2=O)CC(O)(C(=O)CO)CC3OC1CC(N)C(O)C(C)O1 (centres undefined) + Cc1[nH]c2ccc(F)cc2c1-c1nc2c3cccnc3c3ncccc3c2[nH]1 | yes (1) |
| CC1COCCN1c1cc(C2(S(C)(=N)=O)CC2)nc(-c2ccnc3[nH]ccc23)n1 (centres undefined) + Cc1cnc(CNC(=O)c2c(=O)c3ccc(N4CCCN(C)CC4)nc3n3c2sc2ccccc23)cn1 | yes (1) |
| CC1COCCN1c1cc(C2(O)CC3CCC(C2)O3)c2cnn(-c3ccn[nH]3)c2n1 (centres undefined) + Cc1[nH]c2ccc(F)cc2c1-c1nc2c3cccnc3c3ncccc3c2[nH]1 | yes (1) |
| COc1ccc([C@@H](O)c2cc(-c3ncnc4cc(N5CCOCC5)ccc34)c(F)cc2Cl)nn1 + CN(C)c1ccc(Nc2c3ccc(NC(=O)CCN4CCCC4)cc3nc3cc(NC(=O)CCN4CCCC4)ccc23)cc1 | no (0) |
| CC1COCCN1c1cc(-c2ccnn2C)c2ccnc(-c3ccn[nH]3)c2n1 (centres undefined) + CN(C)c1ccc(Nc2c3ccc(NC(=O)CCN4CCCC4)cc3nc3cc(NC(=O)CCN4CCCC4)ccc23)cc1 | yes (1) |
| COc1cc(C2c3cc4c(cc3C(OC3OC5COC(C)OC5C(O)C3O)C3COC(=O)C23)OCO4)cc(OC)c1O (centres undefined) + Cc1cnc(CNC(=O)c2c(=O)c3ccc(N4CCCN(C)CC4)nc3n3c2sc2ccccc23)cn1 | yes (1) |
| COc1cc(C2c3cc4c(cc3C(OC3OC5COC(C)OC5C(O)C3O)C3COC(=O)C23)OCO4)cc(OC)c1O (centres undefined) + CN(C)c1ccc(Nc2c3ccc(NC(=O)CCN4CCCC4)cc3nc3cc(NC(=O)CCN4CCCC4)ccc23)cc1 | yes (1) |
| CC(C)(O)C1CCC(Nc2ccc3ncc(-c4cccc(C(F)(F)F)c4)n3n2)CC1 (centres undefined) + Cc1[nH]c2ccc(F)cc2c1-c1nc2c3cccnc3c3ncccc3c2[nH]1 | no (0) |
| CCCS(=O)(=O)Nc1ccc(F)c(C(=O)c2c[nH]c3ncc(-c4ccc(Cl)cc4)cc23)c1F + Cc1cnc(CNC(=O)c2c(=O)c3ccc(N4CCCN(C)CC4)nc3n3c2sc2ccccc23)cn1 | yes (1) |
| CC1COCCN1c1cc(-c2ccnn2C)c2ccnc(-c3ccn[nH]3)c2n1 (centres undefined) + Cc1[nH]c2ccc(F)cc2c1-c1nc2c3cccnc3c3ncccc3c2[nH]1 | yes (1) |
| COc1ccc([C@@H](O)c2cc(-c3ncnc4cc(N5CCOCC5)ccc34)c(F)cc2Cl)nn1 + Cc1cnc(CNC(=O)c2c(=O)c3ccc(N4CCCN(C)CC4)nc3n3c2sc2ccccc23)cn1 | yes (1) |

This collection of values is drawn from PubChem BioAssay AID2060488.
